# key: entry, value: YAP1 (% UTC)
Test system: Yap1 mRNA
Assay: Antisense inhibition of human Yap1 in A-431 cells by cEt gapmers, single dose (Example 2, RTS4814)
Type: cell-based
Conditions: Table 19; A-431 cells, 5,000 cells per well, free uptake, 2,000 nM modified oligonucleotide, approx. 48 hours; RTS4814; normalized to RIBOGREEN; Yap1 mRNA as percent of untreated control
Strand notation (5' to 3'): a small letter for the sugar, then the base; units joined by * are phosphorothioate-linked, units joined directly phosphodiester-linked; [ ] holds rarer units or linkages, { } end groups; capitals alone tell only the bases. k = constrained ethyl (cEt); [5mC] = 5-methylcytosine; d = 2'-deoxy (DNA)
REPORTED ENDPOINT: YAP1 (% UTC)

>>> df
                                  substance  units_label  reported_value
0  1074949 (antisense kG*kT*kG*dA*dT*dT*dT*dT*dT*dT*d[5mC]*dT*dG*kA*kG*kT) [Compound 1074949]        % UTC              31
1  1074629 (antisense kG*kA*kG*dA*dT*dT*dT*dT*dA*dT*dG*d[5mC]*d[5mC]*kT*kG*kT) [Compound 1074629]        % UTC               3
2  1074917 (antisense k[5mC]*kA*kA*dG*dT*dT*dA*d[5mC]*dA*dT*d[5mC]*d[5mC]*d[5mC]*kG*kA*kG) [Compound 1074917]        % UTC              80

----------
System: Yap1 mRNA
Assay: Dose-dependent inhibition of human Yap1 in A-431 cells (Example 8, 10,000 cells per well, RTS4814)
Format: cell-based
Conditions: 31.3 nM; A-431 cells, 10,000 cells per well, free uptake, approximately 48 hours, RTS4814
Strand notation (5' to 3'): a small letter for the sugar, then the base; units joined by * are phosphorothioate-linked, units joined directly phosphodiester-linked; [ ] holds rarer units or linkages, { } end groups; capitals alone tell only the bases. k = constrained ethyl (cEt); [5mC] = 5-methylcytosine; d = 2'-deoxy (DNA)
# binarize Yap1 mRNA, % UTC: threshold 60 % UTC inclusive, high side Fulfilled, low side Not fulfilled

In [3]: df
Out[3]:
                                  substance  assayed_target  category_label
0  1075465 (antisense kG*kA*kT*dT*dT*dA*dT*dT*dG*dA*dA*d[5mC]*dT*kG*kA*kG) [compound 1075465]       Yap1 mRNA       Fulfilled
1  1076143 (kG*kA*kT*dA*d[5mC]*dG*dA*dA*dA*dA*dA*dA*dG*k[5mC]*k[5mC]*kA; antisense) [compound 1076143]       Yap1 mRNA       Fulfilled
2  1074606 (DNA kG*kG*kT*dA*dT*dA*dA*dT*d[5mC]*dA*dT*dG*dA*kT*kT*kA) [compound 1074606]       Yap1 mRNA   Not fulfilled
3  1075824 (kG*kT*kA*dT*dT*dA*dG*dA*dG*dG*dT*dT*d[5mC]*k[5mC]*kA*kG; antisense) [compound 1075824]       Yap1 mRNA   Not fulfilled
4  1076015 (kA*kT*kT*dT*dA*dG*dT*dT*dG*dG*dT*dT*dG*kT*kT*kA; antisense) [compound 1076015]       Yap1 mRNA       Fulfilled
5  1075078 (antisense k[5mC]*kA*kA*d[5mC]*dT*dA*dT*dA*d[5mC]*dG*dG*dT*d[5mC]*k[5mC]*kA*kT) [compound 1075078]       Yap1 mRNA       Fulfilled

Data origin, for the record: patent US11214803B2
